# Tested on: horse erythrocytes
# ASSAY: Haemolytic assay
# Format: cell-based
# CONDITION_DESCRIPTION: 2% (v/v) horse red blood cells, 37 °C, 2 h; 1% Triton-X 100 positive control; three times in five replicates
Positions of bridges follow the written chain, without caps; N, C: chain ends. Residues, ends and D or L forms follow the SMILES beside them.
MEASUREMENT_TYPE: HC10 (concentration causing 10% red cell lysis) (µM)

1. CC[C@H](C)[C@@H]1NC(=O)[C@H](C)NC(=O)[C@@H](NC(=O)[C@H](Cc2ccccc2)NC(=O)[C@@H](NC(=O)[C@H](CCCCN)NC(=O)[C@H](Cc2c[nH]c3ccccc23)NC(=O)[C@@H]2CCCN2C(=O)[C@H](CC(C)C)NC(=O)[C@H](Cc2ccccc2)NC(=O)[C@H](CCCCN)NC(=O)[C@@H](N)CCCCN)[C@@H](C)CC)CSSC[C@@H](C(=O)O)NC(=O)[C@H](CCCCN)NC(=O)[C@H](CCCCN)NC(=O)[C@H]([C@@H](C)O)NC1=O [KKWB2] (H-KKFLPWKIFCAITKKC-OH; disulfide 10-16)    140.04
2. CC[C@H](C)[C@@H]1NC(=O)[C@H](C)NC(=O)[C@@H](NC(=O)[C@H](Cc2ccccc2)NC(=O)[C@@H](NC(=O)[C@H](CCCCN)NC(=O)[C@H](Cc2c[nH]c3ccccc23)NC(=O)[C@@H]2CCCN2C(=O)[C@H](CC(C)C)NC(=O)[C@H](Cc2ccccc2)NC(=O)[C@@H](N)CCCCN)[C@@H](C)CC)CSSC[C@@H](C(=O)O)NC(=O)[C@H](CCCCN)NC(=O)[C@H](CCCCN)NC(=O)[C@H]([C@@H](C)O)NC1=O [KWB2] (H-KFLPWKIFCAITKKC-OH; disulfide 9-15)    99.81

====

# Tested on: Enterococcus faecalis (NCTC12697)
# Assay type: cell-based
Positions of bridges follow the written chain, without caps; N, C: chain ends. Residues, ends and D or L forms follow the SMILES beside them.
MEASUREMENT_TYPE: MBC E. faecalis (µM)

1. CC[C@H](C)[C@@H]1NC(=O)[C@H](C)NC(=O)[C@@H](NC(=O)[C@H](Cc2ccccc2)NC(=O)[C@H](Cc2c[nH]c3ccccc23)NC(=O)[C@H](CCCCN)NC(=O)[C@H](Cc2c[nH]c3ccccc23)NC(=O)[C@@H]2CCCN2C(=O)[C@H](CC(C)C)NC(=O)[C@H](Cc2ccccc2)NC(=O)[C@@H](N)CCCCN)CSSC[C@@H](C(=O)O)NC(=O)[C@H](CCCCN)NC(=O)[C@H](CCCCN)NC(=O)[C@H]([C@@H](C)O)NC1=O [KW^5,7B2] (H-KFLPWKWFCAITKKC-OH; disulfide 9-15)    512

====

Consider the following compounds and their measured MBC C. albicans readings.
# Test system: Candida albicans (NCYC1467)
# Format: cell-based
Positions of bridges follow the written chain, without caps; N, C: chain ends. Residues, ends and D or L forms follow the SMILES beside them.
MEASUREMENT_TYPE: MBC C. albicans (µM)

1. CC[C@H](C)[C@@H]1NC(=O)[C@H](C)NC(=O)[C@@H](NC(=O)[C@H](Cc2ccccc2)NC(=O)[C@@H](NC(=O)[C@H](CCCCN)NC(=O)[C@H](Cc2c[nH]c3ccccc23)NC(=O)[C@@H]2CCCN2C(=O)[C@H](Cc2c[nH]c3ccccc23)NC(=O)[C@H](Cc2ccccc2)NC(=O)[C@@H](N)CCCCN)[C@@H](C)CC)CSSC[C@@H](C(=O)O)NC(=O)[C@H](CCCCN)NC(=O)[C@H](CCCCN)NC(=O)[C@H]([C@@H](C)O)NC1=O [KW^3,5B2] (H-KFWPWKIFCAITKKC-OH; disulfide 9-15)    32
2. CC[C@H](C)[C@@H]1NC(=O)[C@H](C)NC(=O)[C@@H](NC(=O)[C@H](Cc2ccccc2)NC(=O)[C@@H](NC(=O)[C@H](CCCCN)NC(=O)[C@@H]2CCCN2C(=O)[C@H](CC(C)C)NC(=O)[C@H](Cc2ccccc2)NC(=O)[C@@H](N)CCCCN)[C@@H](C)CC)CSSC[C@@H](C(=O)O)NC(=O)[C@H](CCCCN)NC(=O)[C@H](CCCCN)NC(=O)[C@H]([C@@H](C)O)NC1=O [KB2] (H-KFLPKIFCAITKKC-OH; disulfide 8-14)    512
3. CC[C@H](C)[C@@H]1NC(=O)[C@H](C)NC(=O)[C@@H](NC(=O)[C@H](Cc2ccccc2)NC(=O)[C@@H](NC(=O)[C@H](CCCCN)NC(=O)[C@H](Cc2c[nH]c3ccccc23)NC(=O)[C@@H]2CCCN2C(=O)[C@H](CC(C)C)NC(=O)[C@H](Cc2ccccc2)NC(=O)[C@H](CCCCN)NC(=O)[C@@H](N)CCCCN)[C@@H](C)CC)CSSC[C@@H](C(=O)O)NC(=O)[C@H](CCCCN)NC(=O)[C@H](CCCCN)NC(=O)[C@H]([C@@H](C)O)NC1=O [KKWB2] (H-KKFLPWKIFCAITKKC-OH; disulfide 10-16)    32
4. CC[C@H](C)[C@@H]1NC(=O)[C@H](C)NC(=O)[C@@H](NC(=O)[C@H](CCCCN)NC(=O)[C@H](C)NC(=O)[C@H](C)NC(=O)[C@H](CC(C)C)NC(=O)CNC(=O)[C@H](C)NC(=O)[C@@H](NC(=O)[C@H](CC(C)C)NC(=O)[C@@H]2CCCN2C(=O)[C@H](CC(C)C)NC(=O)[C@@H](N)Cc2ccccc2)[C@@H](C)CC)CSSC[C@@H](C(=O)O)NC(=O)[C@H](CCCCN)NC(=O)[C@H](CCCCN)NC(=O)[C@H]([C@@H](C)O)NC1=O [Peptide B1A1] (H-FLPLIAGLAAKCAITKKC-OH; disulfide 12-18)    512
